assay-system: Serine/threonine-protein kinase N2 (Homo sapiens, UniProt Q16513); also: in the data inactive means no Kd found up to 30 µM
Sequence (Q16513 whole entry): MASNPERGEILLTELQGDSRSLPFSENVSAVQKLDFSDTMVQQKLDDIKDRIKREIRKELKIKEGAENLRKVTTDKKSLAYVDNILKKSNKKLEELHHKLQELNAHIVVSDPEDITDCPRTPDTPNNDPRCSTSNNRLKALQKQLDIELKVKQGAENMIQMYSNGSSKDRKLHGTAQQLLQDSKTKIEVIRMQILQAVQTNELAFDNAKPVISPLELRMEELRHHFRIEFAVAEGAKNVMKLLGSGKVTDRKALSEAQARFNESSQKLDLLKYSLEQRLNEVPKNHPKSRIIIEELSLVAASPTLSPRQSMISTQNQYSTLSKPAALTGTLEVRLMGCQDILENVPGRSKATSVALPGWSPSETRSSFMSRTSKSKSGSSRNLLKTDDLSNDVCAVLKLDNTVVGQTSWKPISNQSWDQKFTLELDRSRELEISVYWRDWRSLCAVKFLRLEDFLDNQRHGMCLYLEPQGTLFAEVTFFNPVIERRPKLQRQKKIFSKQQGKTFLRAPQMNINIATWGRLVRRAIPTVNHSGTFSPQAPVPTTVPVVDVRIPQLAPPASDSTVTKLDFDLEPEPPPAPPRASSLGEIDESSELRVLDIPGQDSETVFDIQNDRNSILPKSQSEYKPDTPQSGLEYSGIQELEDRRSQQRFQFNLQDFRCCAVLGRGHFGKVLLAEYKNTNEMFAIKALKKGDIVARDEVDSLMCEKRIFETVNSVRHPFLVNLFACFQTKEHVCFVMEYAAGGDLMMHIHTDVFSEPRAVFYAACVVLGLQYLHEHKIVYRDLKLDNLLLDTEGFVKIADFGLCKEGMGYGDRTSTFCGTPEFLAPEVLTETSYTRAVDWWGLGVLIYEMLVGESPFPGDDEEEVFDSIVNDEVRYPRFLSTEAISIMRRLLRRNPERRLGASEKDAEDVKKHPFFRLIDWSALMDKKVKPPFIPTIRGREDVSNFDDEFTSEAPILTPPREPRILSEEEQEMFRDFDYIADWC
Active and inactive are the calls of the source.
parameter: Kd

Solved cases (5 shown):
COc1cc2ncnc3c2cc1OCCCCCN(C)Cc1ccc(Br)cc1N3 ... > 30 µM (inactive)
Cc1cc(-c2cc(OC(=O)c3ccccc3)ccc2Cl)cc2nnc(Nc3ccc(OCCN4CCCC4)cc3)nc12 ... > 30 µM (inactive)
O=C(NC[C@H](O)CO)c1ccncc1Nc1ccc(I)cc1F ... > 30 µM (inactive)
CCN1CCN(Cc2ccc(Nc3ncc(F)c(-c4cc(F)c5nc(C)n(C(C)C)c5c4)n3)nc2)CC1 ... > 30 µM (inactive)
Cc1ccc(C(=O)Nc2ccc(Oc3cc4cnn(C)c4cc3-c3cn[nH]c3)c(F)c2)c(=O)n1-c1ccc(F)cc1 ... > 30 µM (inactive)

Hey, quick one: what's Kd for each of these?
1. O=c1[nH]c([C@@H]2CCCN2)nc2c1oc1ccc(Cl)cc12
2. CCc1cc2c(cc1N1CCC(N3CCOCC3)CC1)C(C)(C)c1[nH]c3cc(C#N)ccc3c1C2=O
3. Cc1c(NC(=O)OC[C@@H]2COCCN2)cn2ncnc(Nc3ccc4c(cnn4Cc4cccc(F)c4)c3)c12
4. Cc1c(Cn2c(C)nc3c(C(=O)O)cc(N4CCOCC4)cc32)cccc1C(F)(F)F
5. Cn1cc(-c2[nH]c3cc(NC(=O)[C@H](N)C4CCCCC4)cc4c3c2C=NNC4=O)cn1
6. CC(C)CC(=O)Nc1[nH]nc2c1CN(C(=O)C1CCN(C)CC1)C2(C)C
7. Cc1cc(C(=O)Nc2cc(Oc3ccc4nc(NC(=O)C5CC5)cn4n3)ccc2C)n(C)n1
8. O[C@H]1CC[C@H](Nc2ncc3nc(Nc4c(F)cc(F)cc4F)n([C@H]4CCOC4)c3n2)CC1

Result:
["> 30 µM (inactive)", "> 30 µM (inactive)", "> 30 µM (inactive)", "> 30 µM (inactive)", "> 30 µM (inactive)", "> 30 µM (inactive)", "> 30 µM (inactive)", "> 30 µM (inactive)"]

---

assay-system: Serine/threonine-protein kinase LATS1 (Homo sapiens); also: in the data inactive means no Kd found up to 30 µM
Sequence (O95835 whole entry): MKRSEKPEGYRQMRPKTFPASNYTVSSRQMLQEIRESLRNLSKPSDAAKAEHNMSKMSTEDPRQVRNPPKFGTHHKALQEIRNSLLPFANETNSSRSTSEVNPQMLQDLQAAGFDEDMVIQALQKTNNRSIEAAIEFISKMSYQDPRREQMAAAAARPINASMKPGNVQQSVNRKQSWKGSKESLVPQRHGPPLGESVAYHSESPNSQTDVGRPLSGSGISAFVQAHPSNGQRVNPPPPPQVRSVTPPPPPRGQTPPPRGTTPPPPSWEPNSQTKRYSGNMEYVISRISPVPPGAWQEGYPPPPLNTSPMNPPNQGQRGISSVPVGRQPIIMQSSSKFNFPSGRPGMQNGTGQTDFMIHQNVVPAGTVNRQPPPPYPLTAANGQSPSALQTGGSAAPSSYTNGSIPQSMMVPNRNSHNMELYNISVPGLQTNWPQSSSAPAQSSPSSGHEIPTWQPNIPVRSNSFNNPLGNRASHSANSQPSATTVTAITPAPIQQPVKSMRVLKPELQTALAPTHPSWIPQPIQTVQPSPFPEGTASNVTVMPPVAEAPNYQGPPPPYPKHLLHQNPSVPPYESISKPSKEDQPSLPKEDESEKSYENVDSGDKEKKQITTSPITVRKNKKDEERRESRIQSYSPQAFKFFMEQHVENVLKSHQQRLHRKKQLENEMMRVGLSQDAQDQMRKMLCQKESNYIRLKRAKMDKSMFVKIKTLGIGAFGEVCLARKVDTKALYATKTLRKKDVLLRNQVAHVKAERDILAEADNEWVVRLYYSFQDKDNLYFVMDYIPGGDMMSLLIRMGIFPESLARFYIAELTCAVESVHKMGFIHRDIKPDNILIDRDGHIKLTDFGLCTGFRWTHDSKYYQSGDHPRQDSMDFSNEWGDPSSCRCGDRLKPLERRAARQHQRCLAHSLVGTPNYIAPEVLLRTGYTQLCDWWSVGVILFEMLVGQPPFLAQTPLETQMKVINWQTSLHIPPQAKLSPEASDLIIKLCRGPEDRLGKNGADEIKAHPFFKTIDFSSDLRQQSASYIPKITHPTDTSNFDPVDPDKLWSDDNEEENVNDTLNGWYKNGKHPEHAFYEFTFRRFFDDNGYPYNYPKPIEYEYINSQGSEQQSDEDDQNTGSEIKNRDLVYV
Calls of active or inactive are those of the source.
Answer with one of the outcomes given here: active, inactive

# example entries with known answers
COc1cc2nccc(Oc3ccc(NC(=O)C4(C(=O)Nc5ccc(F)cc5)CC4)cc3)c2cc1OC [CABOZANTINIB] ... inactive
CC[C@@](C)(Nc1ccnc(-c2c[nH]c3ncccc23)n1)C(=O)NCC(F)(F)F ... inactive
C[C@@H]1COC(Nc2ccc3ncnc(Nc4ccc(OCc5nccs5)c(Cl)c4)c3c2)=N1 ... inactive
COc1cc2ncnc3c2cc1OCCCCCN(C)Cc1ccc(Br)cc1N3 ... inactive
CCOc1ccn(-c2ccc(F)cc2)c(=O)c1C(=O)Nc1ccc(Oc2ccnc(N)c2Cl)c(F)c1 ... inactive

Problem: Per the assay record, what outcome was assigned to `COc1cc(Nc2ncc(F)c(Nc3ccc4c(n3)N(COP(=O)(O)O)C(=O)C(C)(C)O4)n2)cc(OC)c1OC` ?
Result: active

Problem: Could you check what this test reported for COc1ccc(-c2ccc3ncc4c(c3c2)n(-c2ccc(N3CCNCC3)c(C(F)(F)F)c2)c(=O)n4C)cn1 [BGT-226 FREE BASE] ?
Result: inactive

Problem: Each compound tested received a call. Report the one for `O=c1[nH]c([C@@H]2CCCN2)nc2c1oc1ccc(Cl)cc12` .
Result: inactive

Problem: What did this assay record as the result for `COc1cc(F)c(F)c(Nc2ccc(I)cc2F)c1NS(=O)(=O)C1(C[C@H](O)CO)CC1` ?
Result: inactive

Problem: Test call for this compound, please: `Cc1cc(-c2cc(OC(=O)c3ccccc3)ccc2Cl)cc2nnc(Nc3ccc(OCCN4CCCC4)cc3)nc12`
Result: inactive

---

assay-system: Dual specificity mitogen-activated protein kinase kinase 5 (Homo sapiens); also: in the data inactive means no Kd found up to 30 µM
Sequence (Q13163 whole entry): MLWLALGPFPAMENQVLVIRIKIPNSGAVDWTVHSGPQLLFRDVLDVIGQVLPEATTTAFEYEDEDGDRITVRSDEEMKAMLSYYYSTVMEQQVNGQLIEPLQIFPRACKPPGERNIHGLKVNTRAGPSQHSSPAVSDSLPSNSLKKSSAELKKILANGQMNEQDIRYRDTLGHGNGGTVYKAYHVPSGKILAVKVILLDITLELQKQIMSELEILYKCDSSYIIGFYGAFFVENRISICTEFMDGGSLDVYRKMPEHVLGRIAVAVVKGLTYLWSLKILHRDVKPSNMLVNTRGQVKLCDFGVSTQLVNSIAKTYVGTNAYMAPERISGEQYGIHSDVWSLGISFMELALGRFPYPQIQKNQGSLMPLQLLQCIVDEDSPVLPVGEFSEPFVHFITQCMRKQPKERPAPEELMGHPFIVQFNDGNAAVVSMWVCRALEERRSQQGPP
Calls of active or inactive are those of the source.
Choose one outcome from this list and give only that: active, inactive

Solved entries:
COc1cc2nccc(Oc3ccc(NC(=O)C4(C(=O)Nc5ccc(F)cc5)CC4)cc3)c2cc1OC [CABOZANTINIB] ... active
CC(C)CC(=O)Nc1[nH]nc2c1CN(C(=O)C1CCN(C)CC1)C2(C)C ... inactive
C#Cc1cccc(Nc2ncnc3cc4c(cc23)OCCOCCOCCO4)c1 ... inactive

Problem: Could you please tell me the result logged for `COc1ccc2c(OCc3nnc4ccc(-c5ccccc5)nn34)ccnc2c1` in this assay?
Result: inactive

Problem: Hi, sorry to bother you, what did the test record for `Cn1cc(-c2[nH]c3cc(NC(=O)[C@H](N)C4CCCCC4)cc4c3c2C=NNC4=O)cn1` ?
Result: active

Problem: Returns: the outcome recorded for `C=CC(=O)Nc1cc(Nc2nccc(-c3cn(C)c4ccccc34)n2)c(OC)cc1N(C)CCN(C)C` in this assay.
Result: inactive

Problem: How did this test come out for `CNC(=O)c1ccc(Nc2ncc(C(F)(F)F)c(NCc3nccnc3N(C)S(C)(=O)=O)n2)cc1` ?
Result: inactive

---

assay-system: DNA topoisomerase 2-alpha (Homo sapiens, UniProt P11388); also: in the data inactive means no Kd found up to 30 µM
Sequence (P11388 whole entry): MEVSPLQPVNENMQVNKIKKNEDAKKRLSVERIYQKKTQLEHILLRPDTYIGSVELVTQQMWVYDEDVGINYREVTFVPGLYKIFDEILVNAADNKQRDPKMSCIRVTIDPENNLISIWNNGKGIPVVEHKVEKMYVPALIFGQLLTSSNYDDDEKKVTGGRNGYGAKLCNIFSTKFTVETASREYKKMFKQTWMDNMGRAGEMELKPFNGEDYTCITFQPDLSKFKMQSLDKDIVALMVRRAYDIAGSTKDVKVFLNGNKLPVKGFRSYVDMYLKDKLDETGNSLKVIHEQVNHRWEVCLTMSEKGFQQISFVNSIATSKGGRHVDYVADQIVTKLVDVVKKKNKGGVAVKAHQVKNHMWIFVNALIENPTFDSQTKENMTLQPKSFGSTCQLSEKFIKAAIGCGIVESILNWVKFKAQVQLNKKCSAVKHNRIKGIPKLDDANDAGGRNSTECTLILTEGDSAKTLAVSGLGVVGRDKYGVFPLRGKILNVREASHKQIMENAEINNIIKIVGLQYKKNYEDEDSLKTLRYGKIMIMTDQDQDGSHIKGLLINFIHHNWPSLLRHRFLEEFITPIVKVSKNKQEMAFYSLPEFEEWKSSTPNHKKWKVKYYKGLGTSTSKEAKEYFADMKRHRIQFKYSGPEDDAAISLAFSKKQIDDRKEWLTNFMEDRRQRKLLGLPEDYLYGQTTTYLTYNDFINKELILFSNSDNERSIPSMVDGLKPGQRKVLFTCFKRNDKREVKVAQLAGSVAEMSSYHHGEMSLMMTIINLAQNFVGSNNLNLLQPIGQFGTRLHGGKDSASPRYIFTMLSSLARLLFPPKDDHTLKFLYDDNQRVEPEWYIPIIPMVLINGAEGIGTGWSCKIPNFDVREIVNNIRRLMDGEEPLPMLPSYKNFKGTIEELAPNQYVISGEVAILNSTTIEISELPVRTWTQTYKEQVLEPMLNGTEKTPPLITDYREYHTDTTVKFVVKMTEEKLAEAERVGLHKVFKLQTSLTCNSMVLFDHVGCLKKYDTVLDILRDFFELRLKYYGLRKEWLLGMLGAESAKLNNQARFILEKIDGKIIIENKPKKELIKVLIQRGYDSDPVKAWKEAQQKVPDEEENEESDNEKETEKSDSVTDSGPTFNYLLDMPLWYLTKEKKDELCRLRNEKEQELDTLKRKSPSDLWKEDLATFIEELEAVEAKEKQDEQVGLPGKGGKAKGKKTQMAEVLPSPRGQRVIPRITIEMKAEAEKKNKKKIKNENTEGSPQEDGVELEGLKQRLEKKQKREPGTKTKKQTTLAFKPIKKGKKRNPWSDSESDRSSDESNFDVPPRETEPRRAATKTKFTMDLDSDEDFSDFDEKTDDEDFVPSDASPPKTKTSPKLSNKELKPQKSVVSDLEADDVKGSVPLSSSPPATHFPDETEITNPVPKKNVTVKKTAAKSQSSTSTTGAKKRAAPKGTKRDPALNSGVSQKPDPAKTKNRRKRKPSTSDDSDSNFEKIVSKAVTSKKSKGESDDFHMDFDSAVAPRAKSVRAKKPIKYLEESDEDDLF
Calls of active or inactive are those of the source.
parameter: Kd

Answered cases to consult:
C[C@@H]1COC(Nc2ccc3ncnc(Nc4ccc(OCc5nccs5)c(Cl)c4)c3c2)=N1 [VARLITINIB] ... > 30 µM (inactive)
CNC(=O)c1ccc(Nc2ncc(C(F)(F)F)c(NCc3nccnc3N(C)S(C)(=O)=O)n2)cc1 [DEFACTINIB] ... > 30 µM (inactive)
O=C(Nc1ccc(OC(F)(F)F)cc1)c1sccc1NCc1ccnc2ccccc12 [OSI-930] ... > 30 µM (inactive)

Please go through the list and note Kd for each compound.
1. c1cc(OCCN2CCCCC2)cc(-c2n[nH]c3ccc(-c4nc[nH]n4)cc23)c1 [CC-401]
2. COc1cc2ncnc3c2cc1OCCCCCN(C)Cc1ccc(Br)cc1N3 [JNJ-26483327]
3. O[C@H]1CC[C@H](Nc2ncc3nc(Nc4c(F)cc(F)cc4F)n([C@H]4CCOC4)c3n2)CC1 [TANZISERTIB]
4. C=CCn1c(=O)c2cnc(Nc3ccc(N4CCN(C)CC4)cc3)nc2n1-c1cccc(C(C)(C)O)n1 [ADAVOSERTIB]
5. C#Cc1cccc(Nc2ncnc3cc4c(cc23)OCCOCCOCCO4)c1 [ICOTINIB]
6. CN1CCN(c2nc(C3=C(c4c[nH]c5ccccc45)C(=O)NC3=O)c3ccccc3n2)CC1 [SOTRASTAURIN]
7. Cn1cnc2c(F)c(Nc3ccc(Br)cc3Cl)c(C(=O)NOCCO)cc21 [SELUMETINIB]

Result:
1: > 30 µM (inactive); 2: > 30 µM (inactive); 3: > 30 µM (inactive); 4: > 30 µM (inactive); 5: > 30 µM (inactive); 6: > 30 µM (inactive); 7: > 30 µM (inactive)

List reported Kd for each of these compounds:
1. COc1cc2c(Oc3ccc4[nH]c(C)cc4c3F)ncnc2cc1OCCCN1CCCC1 [CEDIRANIB]
2. CN(C)C/C=C/C(=O)Nc1cc2c(Nc3ccc(F)c(Cl)c3)ncnc2cc1O[C@H]1CCOC1 [AFATINIB]
3. CC1(COc2ccc3c(c2)ncn3-c2ccc3cccc(N4CCC(N)CC4)c3n2)COC1 [CRENOLANIB]
4. CCN1CCN(Cc2ccc(Nc3ncc(F)c(-c4cc(F)c5nc(C)n(C(C)C)c5c4)n3)nc2)CC1 [ABEMACICLIB]

Result:
1: > 30 µM (inactive); 2: > 30 µM (inactive); 3: > 30 µM (inactive); 4: > 30 µM (inactive)

Hi team, please reply with Kd for each item in this list.
1. NC[C@@](O)(c1ccc(Cl)cc1)c1ccc(-c2cn[nH]c2)cc1 [AT-13148]
2. C[C@@]1(C(=O)Nc2ccc(F)nc2)CCCN1c1nc(Nc2cc(C3CC3)n[nH]2)c2cccn2n1 [BMS-754807]
3. COCCN1CCN(Cc2ccc(-c3n[nH]c4c3C(=O)c3c(NC(=O)NN5CCOCC5)cccc3-4)cc2)CC1 [RGB-286638]

Result:
1. > 30 µM (inactive)
2. > 30 µM (inactive)
3. > 30 µM (inactive)
